- Target Of Assay: SHP2 (Homo sapiens (Human), UniProt Q06124)
- Sequence (Q06124 whole entry): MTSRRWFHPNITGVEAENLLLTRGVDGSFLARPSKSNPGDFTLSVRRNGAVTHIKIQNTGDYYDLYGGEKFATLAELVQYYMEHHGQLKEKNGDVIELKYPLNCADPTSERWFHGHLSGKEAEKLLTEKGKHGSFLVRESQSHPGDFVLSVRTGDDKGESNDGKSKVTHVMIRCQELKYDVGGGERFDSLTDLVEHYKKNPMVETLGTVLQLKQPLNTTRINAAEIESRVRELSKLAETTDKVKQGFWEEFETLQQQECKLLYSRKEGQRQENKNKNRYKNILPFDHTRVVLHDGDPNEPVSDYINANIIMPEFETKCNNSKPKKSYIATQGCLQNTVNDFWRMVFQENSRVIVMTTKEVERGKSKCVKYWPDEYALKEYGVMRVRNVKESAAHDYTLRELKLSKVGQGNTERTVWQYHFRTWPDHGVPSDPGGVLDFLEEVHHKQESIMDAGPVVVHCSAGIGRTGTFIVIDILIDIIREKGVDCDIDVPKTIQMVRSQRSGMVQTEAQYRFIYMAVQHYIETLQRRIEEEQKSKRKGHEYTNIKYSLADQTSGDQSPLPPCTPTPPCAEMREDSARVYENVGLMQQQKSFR
- Assay Comment: SHP2 allosteric inhibitory enzyme activity assay (DiFMUP fluorescence)
- Type: biochemical
- Conditions Used: read-out: SHP2 enzymatic activity IC50
Measurement Kind: pIC50
# log scale: pIC50 equals minus log10 of the concentration in mol/L

Consider the worked cases shown below.
Molecule	Target Of Assay	pIC50
N[C@@H]1c2ccccc2CC12CCN(c1ncc(C#CCOc3ccccc3)nc1CO)CC2 [Compound A01]	SHP2 (Homo sapiens (Human), UniProt Q06124)	8.92
N[C@@H]1c2ccccc2CC12CCN(c1ncc(C#CCOc3ccc4c(c3)CCNC4=O)nc1CO)CC2 [Compound A52]	SHP2 (Homo sapiens (Human), UniProt Q06124)	8.80
Nc1cc(OCC#Cc2cnc(N3CCC4(CC3)Cc3ccccc3[C@H]4N)c(CO)n2)ccn1 [Compound A26]	SHP2 (Homo sapiens (Human), UniProt Q06124)	8.80
Cc1nc2cc(OCC#Cc3cnc(N4CCC5(CC4)Cc4ccccc4[C@H]5N)c(CO)n3)ccc2[nH]1 [Compound A73]	SHP2 (Homo sapiens (Human), UniProt Q06124)	8.51
Cn1nccc1Nc1ccc(OCC#Cc2cnc(N3CCC4(CC3)Cc3ccccc3[C@H]4N)c(CO)n2)cc1 [Compound A77]	SHP2 (Homo sapiens (Human), UniProt Q06124)	8.23

(Q) Endpoint output: pIC50 of NC(=O)c1ccc(OCC#Cc2cnc(N3CCC4(CC3)Cc3ccccc3[C@H]4N)c(CO)n2)cc1 [Compound A17] . Value?
(A) 8.62

(Q) Endpoint output: pIC50 of CC(=O)Nc1cccc(OCC#Cc2cnc(N3CCC4(CC3)Cc3ccccc3[C@H]4N)c(CO)n2)c1 [Compound A04] . Value?
(A) 8.54

(Q) Endpoint output: pIC50 of N#Cc1cccc(OCC#Cc2cnc(N3CCC4(CC3)Cc3ccccc3[C@H]4N)c(CO)n2)c1 [Compound A53] . Value?
(A) 8.48

(Q) Endpoint output: pIC50 of Cn1nccc1NCC#Cc1cnc(N2CCC3(CC2)Cc2ccccc2[C@H]3N)c(CO)n1 [Compound A61] . Value?
(A) 8.74

(Q) Endpoint output: pIC50 of COc1cccc(OCC#Cc2cnc(N3CCC4(CC3)Cc3ccccc3[C@H]4N)c(CO)n2)c1 [Compound A02] . Value?
(A) 9.15

(Q) Endpoint output: pIC50 of COc1ccc(NCC#Cc2cnc(N3CCC4(CC3)Cc3ccccc3[C@H]4N)c(CO)n2)cc1OC [Compound A47] . Value?
(A) 8.40

(Q) Endpoint output: pIC50 of NC(=O)c1nc(C#CCOc2ccc3c(c2)C(=O)NC3)cnc1N1CCC2(CC1)Cc1ccccc1[C@H]2N [Compound A42] . Value?
(A) 7.82

(Q) Endpoint output: pIC50 of CC(=O)Nc1cccc(OCC#Cc2cnc(N3CCC4(CC3)Cc3ccccc3[C@H]4N)c(C(N)=O)n2)c1 [Compound A41] . Value?
(A) 7.85

(Q) Endpoint output: pIC50 of NC(=O)Cc1ccc(OCC#Cc2cnc(N3CCC4(CC3)Cc3ccccc3[C@H]4N)c(CO)n2)cc1 [Compound A71] . Value?
(A) 8.54

(Q) Endpoint output: pIC50 of COc1cccc(SCC#Cc2cnc(N3CCC4(CC3)Cc3ccccc3[C@H]4N)c(CO)n2)c1 [Compound A06] . Value?
(A) 8.17

(Q) Endpoint output: pIC50 of CP(C)(=O)c1ccc(OCC#Cc2cnc(N3CCC4(CC3)Cc3ccccc3[C@H]4N)c(CO)n2)cc1 [Compound A57] . Value?
(A) 8.37

(Q) Endpoint output: pIC50 of CNc1ncc(OCC#Cc2cnc(N3CCC4(CC3)Cc3ccccc3[C@H]4N)c(CO)n2)cn1 [Compound A68] . Value?
(A) 8.68

(Q) Endpoint output: pIC50 of N[C@@H]1c2ccccc2CC12CCN(c1ncc(C#CCOc3ccc4c(c3)CNC4=O)nc1CO)CC2 [Compound A51] . Value?
(A) 8.62

(Q) Endpoint output: pIC50 of NC(=O)c1ccc(OCC#Cc2cnc(N3CCC4(CC3)Cc3ccccc3[C@H]4N)c(CO)n2)cc1Cl [Compound A54] . Value?
(A) 9.15

(Q) Endpoint output: pIC50 of CC(=O)Nc1ccc(OCC#Cc2cnc(N3CCC4(CC3)Cc3ccccc3[C@H]4N)c(CO)n2)cc1 [Compound A08] . Value?
(A) 8.48

(Q) Endpoint output: pIC50 of N[C@@H]1c2ccccc2CC12CCN(c1ncc(C#CCOc3ccc(C(O)C(F)(F)F)cc3)nc1CO)CC2 (stereo partly drawn) [Compound A80] . Value?
(A) 8.55

(Q) Endpoint output: pIC50 of N[C@@H]1c2ccccc2CC12CCN(c1ncc(C#CCOc3ccc(S(N)(=O)=O)cc3)nc1CO)CC2 [Compound A32] . Value?
(A) 8.89

(Q) Endpoint output: pIC50 of NC(=O)c1cccc(OCC#Cc2cnc(N3CCC4(CC3)Cc3ccccc3[C@H]4N)c(CO)n2)c1 [Compound A27] . Value?
(A) 8.72

(Q) Endpoint output: pIC50 of NC(=O)Cc1cccc(OCC#Cc2cnc(N3CCC4(CC3)Cc3ccccc3[C@H]4N)c(CO)n2)c1 [Compound A59] . Value?
(A) 8.96
